Test system: C.perfingens (ATCC 13124)
assay_remarks: microbe, parasite or virus in culture
Assay type: cell-based, Clostridium perfingens
reported_conditions: Clostridium, ATCC13124, pH 5; read-out: Minimum Inhibitory Concentrations
measurement_type: MIC (µg/mL)
Quick note: give the figure in µg/mL, leave out the unit.

// worked examples, MIC included
[[record]]
compound = "CCCCCCCCCC(=O)OCC(O)C(=O)O (stereo not shown) [R=9, 3-O-decanoylglyceric acid]"
measurement_type = "MIC"
unit_label = "µg/mL"
reading = 10

[[record]]
compound = "CCCCCC(=O)OCC(O)C(=O)O (stereo not shown) [R=5, 3-O-hexanoylglyceric acid]"
measurement_type = "MIC"
unit_label = "µg/mL"
reading = 100

[[record]]
compound = "CCCCCCCCCCCCCCCC(=O)OCC(O)C(=O)O (stereo not shown) [R=15, 3-O-hexadecanoylglyceric acid]"
measurement_type = "MIC"
unit_label = "µg/mL"
reading = 10


Next up:
INPUT: Field request: MIC | item: CCCCCCCCCCCCC(=O)OCC(O)C(=O)O (stereo not shown) [R=12, 3-O-tridecanoylglyceric acid]
OUTPUT: 10

All values here come from patent US4048202A.
